system: HS 578T breast; experiment: NCI tumour cell line growth inhibition, 48 h
For each record, write down the corresponding TGI.

Solved cases (5 shown):
- COc1ccc(NC(=O)/C(=N\NC(=O)C[n+]2ccccc2)c2c(O)c3ccc(O)cc3oc2=O)c([N+](=O)[O-])c1: > 100 µM
- CN(C)CCCN1c2ccccc2CCc2ccc(Cl)cc21: 77.1 µM
- Cc1cc2c3ccc(C)[n+](C)c3ccc2n1C: 24.3 µM
- COC(=O)C1CCC(=O)N1CN(C(C)=O)c1ccccc1 (stereo unspecified): > 100 µM
- Cc1ccc(-c2nc3ccc(Cl)cc3[nH]2)cc1: > 100 µM

Could I get TGI for every one of these entries?
1. O=C(NCc1cccnc1)NCc1cccnc1
2. Cn1c2c(cc(S(=O)(=O)c3ccccc3)c1=O)CCc1c-2cnn1-c1ccc(Cl)cc1
3. CSc1nc(N)c(NC2OC(CO)C(O)C2O)c(=O)[nH]1 (stereo unspecified)
4. O=C1C(=O)c2c(nc3ccc(Cl)cn23)-c2ccccc21
5. O=C1C2CC=CCC2C(=O)N1n1c(-c2ccccc2)n[nH]c1=O (stereo unspecified)

[A]
1: > 100 µM; 2: 7.61 µM; 3: > 100 µM; 4: 0.74 µM; 5: > 100 µM

[Q] Specify measured TGI for O=C(/C(=C/c1ccc([N+](=O)[O-])cc1)c1ccccc1)c1ccccc1 .
[A] > 100 µM
